Listed below: log10 of Ki values for each entry.
# test.system: MOR (Rattus norvegicus)
# Construct: from tissue
# Sequence (P33535 whole entry): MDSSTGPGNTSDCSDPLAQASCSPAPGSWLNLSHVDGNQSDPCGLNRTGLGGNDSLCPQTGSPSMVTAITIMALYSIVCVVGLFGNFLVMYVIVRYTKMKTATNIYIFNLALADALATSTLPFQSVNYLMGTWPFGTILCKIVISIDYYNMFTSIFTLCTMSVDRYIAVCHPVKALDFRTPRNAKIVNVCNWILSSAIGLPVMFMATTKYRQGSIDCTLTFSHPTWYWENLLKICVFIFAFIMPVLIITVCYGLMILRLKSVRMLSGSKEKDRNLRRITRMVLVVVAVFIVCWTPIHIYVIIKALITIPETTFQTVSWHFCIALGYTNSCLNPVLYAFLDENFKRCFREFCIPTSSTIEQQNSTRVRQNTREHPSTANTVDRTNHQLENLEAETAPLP
# assay.summary: Opioid receptor binding, MOR, rat brain membranes
# condition.info: Binding Ki (nM) MOR, in vitro binding assay, rat brain membranes
reported.endpoint: log10 of Ki (log10 of the value in nM)

{"compound": "COC12CCC(NC(C(=O)O)C(C)C)C3Oc4c(O)ccc5c4C31CCN(C)C2C5 (single isomer, unassigned) [Compound 31]", "log10 of Ki": 0.01}
{"compound": "CO[C@@]12CC[C@@H](N[C@@H](C)C(=O)OC(C)(C)C)[C@@H]3Oc4c(O)ccc5c4[C@@]31CCN(C)[C@@H]2C5", "log10 of Ki": 0.05}
{"compound": "CO[C@@]12CC[C@@H](NCC(=O)OC(C)(C)C)[C@@H]3Oc4c(O)ccc5c4[C@@]31CCN(C)[C@@H]2C5", "log10 of Ki": 0.11}
{"compound": "CCO[C@@]12CC[C@H](NCC(=O)O)[C@@H]3Oc4c(O)ccc5c4[C@@]31CCN(C)[C@@H]2C5", "log10 of Ki": -0.24}
{"compound": "CO[C@@]12CC[C@@H](N[C@@H](CCC(N)=O)C(=O)O)[C@@H]3Oc4c(O)ccc5c4[C@@]31CCN(C)[C@@H]2C5", "log10 of Ki": 0.39}
{"compound": "CO[C@@]12CC[C@H](N[C@@H](CO)C(=O)OC(C)(C)C)[C@@H]3Oc4c(O)ccc5c4[C@@]31CCN(C)[C@@H]2C5", "log10 of Ki": -0.70}
{"compound": "CCC(C)C(NC1CCC2(OC)C3Cc4ccc(O)c5c4C2(CCN3C)C1O5)C(=O)OC(C)(C)C (single isomer, unassigned) [43-t-Bu ester]", "log10 of Ki": 0.46}
{"compound": "CO[C@@]12CC[C@@H](N[C@@H](CC(C)C)C(=O)OC(C)(C)C)[C@@H]3Oc4c(O)ccc5c4[C@@]31CCN(C)[C@@H]2C5", "log10 of Ki": -0.24}
{"compound": "CCOC(=O)CN[C@H]1CC[C@@]2(OC)[C@H]3Cc4ccc(O)c5c4[C@@]2(CCN3C)[C@H]1O5", "log10 of Ki": -0.55}
{"compound": "COC12CCC(NCCC(=O)O)C3Oc4c(O)ccc5c4C31CCN(C)C2C5 (single isomer, unassigned) [Compound 21]", "log10 of Ki": 0.11}
{"compound": "CO[C@@]12CC[C@H](N[C@@H](CCCCN)C(=O)O)[C@@H]3Oc4c(O)ccc5c4[C@@]31CCN(C)[C@@H]2C5", "log10 of Ki": -0.72}
{"compound": "CO[C@@]12CC[C@@H](N[C@@H](CCSC)C(=O)O)[C@@H]3Oc4c(O)ccc5c4[C@@]31CCN(C)[C@@H]2C5", "log10 of Ki": 0.59}
{"compound": "CO[C@@]12CC[C@@H](N[C@@H](CC(N)=O)C(=O)O)[C@@H]3Oc4c(O)ccc5c4[C@@]31CCN(C)[C@@H]2C5", "log10 of Ki": 0.10}

---

# test.system: DOR (Rattus norvegicus, UniProt P33533)
# Construct: from tissue
# Sequence (P33533 whole entry): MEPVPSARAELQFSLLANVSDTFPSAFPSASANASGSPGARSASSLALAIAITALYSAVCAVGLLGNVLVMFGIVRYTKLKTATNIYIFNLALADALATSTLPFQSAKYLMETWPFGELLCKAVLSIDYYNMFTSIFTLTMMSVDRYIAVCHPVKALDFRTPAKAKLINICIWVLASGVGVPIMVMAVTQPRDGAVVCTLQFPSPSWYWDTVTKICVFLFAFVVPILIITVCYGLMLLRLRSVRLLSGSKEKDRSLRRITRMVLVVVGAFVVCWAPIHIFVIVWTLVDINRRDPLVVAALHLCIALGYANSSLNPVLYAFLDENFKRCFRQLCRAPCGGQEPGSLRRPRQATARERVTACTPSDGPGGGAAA
# assay.summary: Opioid receptor binding, DOR, rat brain membranes
# condition.info: in vitro binding assay, rat brain membranes; read-out: Binding Ki (nM) DOR
reported.endpoint: Ki (nM)

{"compound": "CN1CCC23c4c5ccc(O)c4OC2C(NCC(=O)OC(C)(C)C)CCC3(OCCCc2ccccc2)C1C5 (stereo not shown) [7-t-Bu ester]", "test.system": "DOR (Rattus norvegicus, UniProt P33533)", "reported.endpoint": "Ki", "unit": "nM", "test.value": 1.01}
{"compound": "CCOC(=O)CNC1CCC2(OCCCc3ccccc3)C3Cc4ccc(O)c5c4C2(CCN3C)C1O5 (stereo not shown) [8-Et ester]", "test.system": "DOR (Rattus norvegicus, UniProt P33533)", "reported.endpoint": "Ki", "unit": "nM", "test.value": 0.21}
{"compound": "CO[C@@]12CC[C@H](N[C@@H](CCCCN)C(=O)OC(C)(C)C)[C@@H]3Oc4c(O)ccc5c4[C@@]31CCN(C)[C@@H]2C5", "test.system": "DOR (Rattus norvegicus, UniProt P33533)", "reported.endpoint": "Ki", "unit": "nM", "test.value": 0.092}
{"compound": "CCOC(=O)CNC1CCC2(OCCCc3ccccc3)C3Cc4ccc(O)c5c4C2(CCN3C)C1O5 (stereo not shown) [7-Et ester]", "test.system": "DOR (Rattus norvegicus, UniProt P33533)", "reported.endpoint": "Ki", "unit": "nM", "test.value": 0.25}

---

Let's look at some compounds and their measured Ki.
# test.system: DOR (Rattus norvegicus)
# Construct: from tissue
# assay.summary: Opioid receptor binding, DOR, rat brain membranes
# condition.info: Binding Ki DOR, Table 1-4, rat brain membranes

{"compound": "CO[C@@]12CC[C@@H](N[C@@H](CCC(N)=O)C(=O)O)[C@@H]3Oc4c(O)ccc5c4[C@@]31CCN(C)[C@@H]2C5 [Compound 18]", "test.system": "DOR (Rattus norvegicus)", "Ki, nM": 4.87}
{"compound": "COC12CCC(NC(C)C(=O)O)C3Oc4c(O)ccc5c4C31CCN(C)C2C5 (single isomer, unassigned) [Compound 1]", "test.system": "DOR (Rattus norvegicus)", "Ki, nM": 26.9}
{"compound": "CO[C@@]12CC[C@H](N[C@@H](CCSC)C(=O)O)[C@@H]3Oc4c(O)ccc5c4[C@@]31CCN(C)[C@@H]2C5 [Compound 23]", "test.system": "DOR (Rattus norvegicus)", "Ki, nM": 4.03}
{"compound": "CN1CC[C@]23c4c5ccc(O)c4O[C@H]2[C@@H](N[C@@H](Cc2ccccc2)C(=O)O)CC[C@@]3(O)[C@H]1C5 [Compound 11]", "test.system": "DOR (Rattus norvegicus)", "Ki, nM": 19}
{"compound": "CO[C@@]12CC[C@@H](NCC(=O)NCC(=O)O)[C@@H]3Oc4c(O)ccc5c4[C@@]31CCN(C)[C@@H]2C5 [Compound 25]", "test.system": "DOR (Rattus norvegicus)", "Ki, nM": 7.52}
{"compound": "COC12CCC(NC(C(=O)O)C(C)C)C3Oc4c(O)ccc5c4C31CCN(C)C2C5 (single isomer, unassigned) [Compound 31]", "test.system": "DOR (Rattus norvegicus)", "Ki, nM": 1.68}
{"compound": "CO[C@@]12CC[C@H](N[C@@H](CO)C(=O)O)[C@@H]3Oc4c(O)ccc5c4[C@@]31CCN(C)[C@@H]2C5 [Compound 36]", "test.system": "DOR (Rattus norvegicus)", "Ki, nM": 5.32}
{"compound": "CO[C@@]12CC[C@@H](N[C@@H](CC(N)=O)C(=O)O)[C@@H]3Oc4c(O)ccc5c4[C@@]31CCN(C)[C@@H]2C5 [Compound 27]", "test.system": "DOR (Rattus norvegicus)", "Ki, nM": 2.25}
{"compound": "COC12CCC(NC(C)C(=O)O)C3Oc4c(O)ccc5c4C31CCN(C)C2C5 (single isomer, unassigned) [Compound 54]", "test.system": "DOR (Rattus norvegicus)", "Ki, nM": 11.3}
{"compound": "COC12CCC(NC(C)C(=O)O)C3Oc4c(O)ccc5c4C31CCN(C)C2C5 (single isomer, unassigned) [Compound 53]", "test.system": "DOR (Rattus norvegicus)", "Ki, nM": 10.4}
{"compound": "CO[C@@]12CC[C@H](N[C@@H](CC(N)=O)C(=O)O)[C@@H]3Oc4c(O)ccc5c4[C@@]31CCN(C)[C@@H]2C5 [Compound 26]", "test.system": "DOR (Rattus norvegicus)", "Ki, nM": 3.37}
{"compound": "COC12CCC(NC(C(=O)O)C(C)C)C3Oc4c(O)ccc5c4C31CCN(C)C2C5 (single isomer, unassigned) [Compound 28]", "test.system": "DOR (Rattus norvegicus)", "Ki, nM": 3.91}
{"compound": "CO[C@@]12CC[C@@H](N[C@@H](Cc3c[nH]c4ccccc34)C(=O)O)[C@@H]3Oc4c(O)ccc5c4[C@@]31CCN(C)[C@@H]2C5 [Compound 46]", "test.system": "DOR (Rattus norvegicus)", "Ki, nM": 1.19}

---

Reported values of pKi for individual entries
# test.system: KOR (Cavia porcellus, UniProt P41144)
# Construct: from tissue
# Sequence (P41144 whole entry): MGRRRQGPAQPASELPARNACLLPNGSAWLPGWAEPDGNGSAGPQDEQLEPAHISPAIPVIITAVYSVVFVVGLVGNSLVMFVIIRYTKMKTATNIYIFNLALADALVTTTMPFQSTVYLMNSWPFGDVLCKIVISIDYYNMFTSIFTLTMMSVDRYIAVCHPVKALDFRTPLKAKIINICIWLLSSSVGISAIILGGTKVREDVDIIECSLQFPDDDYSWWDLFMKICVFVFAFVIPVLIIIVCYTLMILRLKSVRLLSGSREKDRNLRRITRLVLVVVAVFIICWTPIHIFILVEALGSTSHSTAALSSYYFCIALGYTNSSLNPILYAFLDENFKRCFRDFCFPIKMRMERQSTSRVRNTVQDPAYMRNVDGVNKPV
# assay.summary: Opioid receptor binding, KOR, guinea pig brain membranes
# condition.info: Table 1-4, guinea pig brain membranes; read-out: Binding Ki KOR
pKi: −log10 of the molar value.

{"molecule": "CN1CC[C@]23c4c5ccc(O)c4O[C@H]2[C@H](N[C@@H](Cc2ccccc2)C(=O)O)CC[C@@]3(O)[C@H]1C5", "test.system": "KOR (Cavia porcellus, UniProt P41144)", "pKi": 6.20}
{"molecule": "CC(NC1CCC2(O)C3Cc4ccc(O)c5c4C2(CCN3C)C1O5)C(=O)O (stereo not drawn)", "test.system": "KOR (Cavia porcellus, UniProt P41144)", "pKi": 6.15}
{"molecule": "CO[C@@]12CC[C@@H](N[C@@H](CCCCN)C(=O)O)[C@@H]3Oc4c(O)ccc5c4[C@@]31CCN(C)[C@@H]2C5", "test.system": "KOR (Cavia porcellus, UniProt P41144)", "pKi": 7.47}
